Tested on: DNA of tumor sarcoma 180 (S-180)
Assay: Influence on methylation of DNA of tumor sarcoma 180 in vitro (5-MC content)
Type: cell-based
Details: 3 × 10^−6 M compound, tumor homogenate, 24 h at 37 °C; S-180 control 0.64 ± 0.02; seven determinations
reported endpoint: Content of Bases in DNA, 5-MC ± ζ (mol %)
One number for each entry, in mol %.

molecule	Content of Bases in DNA, 5-MC ± ζ / mol %
CC(C)c1nc2oc3c(NCCN4CCOCC4)ncnc3c2c2c1COC(C)(C)C2	0.33
CC(C)Cc1nc2oc3c(NCCCO)ncnc3c2c2c1COC(C)(C)C2	0.52
CC(C)c1nc2oc3c(NCCN(C)C)ncnc3c2c2c1COC(C)(C)C2	0.24

Proceed to the following item.
Tested on DNA of tumor sarcoma 180 (S-180), the item COc1cccc2c1C(=O)c1c(O)c3c(c(O)c1C2=O)C[C@@](O)(C(=O)CO)C[C@@H]3O[C@H]1C[C@H](N)[C@H](O)[C@H](C)O1 [Doxorubicin, doxorubicin, reference compound] showed Content of Bases in DNA, 5-MC ± ζ equal to 0.21

###

Kindly supply the reported inhibition at 3 µM values for the records listed here.
Tested on: DNA of tumor sarcoma 180 (S-180)
Assay: Influence on methylation of DNA of tumor sarcoma 180 in vitro (5-MC content)
Type: cell-based
Settings: 3 × 10^−6 M compound, 24 h at 37 °C; reduction of 5-MC content vs S-180 control; read-out: Inhibition of the Level of DNA Methylation
Numbers only, in %.

Reference set, count: 3
CC(C)CNc1ncnc2c1sc1nc(-c3ccco3)c3c(c12)CCCC3 34.4
CCOC(=O)N1CCN(c2ncnc3c2sc2nc(C(C)C)c4c(c23)CC(C)(C)OC4)CC1 29.7
CCN(CC)CCNc1ncnc2c1sc1nc(-c3ccco3)c3c(c12)CCCC3 28.1

Proceed to the following item.
inhibition at 3 µM measured on c1coc(-c2nc3sc4c(N5CCOCC5)ncnc4c3c3c2CCCC3)c1 = 23

###

Kindly supply the reported Content of Bases in DNA, 5-MC ± ζ values for the records listed here.
Test system: DNA of tumor sarcoma 180 (S-180)
Assay: Influence on methylation of DNA of tumor sarcoma 180 in vitro (5-MC content)
Format: cell-based
Conditions: 3 × 10^−6 M compound, tumor homogenate, 24 h at 37 °C; S-180 control 0.64 ± 0.02; seven determinations
Answers are plain numbers, in mol %.

Reference set, count: 3
compound	reading unit	Content of Bases in DNA, 5-MC ± ζ
c1coc(-c2nc3sc4c(N5CCOCC5)ncnc4c3c3c2CCCC3)c1 [Compound 5c]	mol %	0.49
CC(C)c1nc2sc3c(NCC4CCCO4)ncnc3c2c2c1COC(C)(C)C2 (stereo not drawn) [Compound 7m]	mol %	0.40
CCN(CC)CCNc1ncnc2c1oc1nc(C(C)C)c3c(c12)CC(C)(C)OC3 [Compound 7c]	mol %	0.37

State the recorded Content of Bases in DNA, 5-MC ± ζ for every item in the following list.
1. CC(C)c1nc2oc3c(NCC4CCCO4)ncnc3c2c2c1COC(C)(C)C2 (stereo not drawn) [Compound 7f]
2. CCN(CC)CCNc1ncnc2c1sc1nc(-c3ccco3)c3c(c12)CCCC3 [Compound 5e]
3. CC(C)c1nc2oc3c(NCCO)ncnc3c2c2c1COC(C)(C)C2 [Compound 7a]

1. 0.50
2. 0.46
3. 0.85

Origin of the recorded values: paper PMC6864781
